tested_on: His‐PARS1 (Homo sapiens, UniProt P07814)
Construct: His‐PARS1 (1001–1,512 aa); made in house; host or cells: Escherichia coli
Sequence (P07814 1001-1512 limits assumed): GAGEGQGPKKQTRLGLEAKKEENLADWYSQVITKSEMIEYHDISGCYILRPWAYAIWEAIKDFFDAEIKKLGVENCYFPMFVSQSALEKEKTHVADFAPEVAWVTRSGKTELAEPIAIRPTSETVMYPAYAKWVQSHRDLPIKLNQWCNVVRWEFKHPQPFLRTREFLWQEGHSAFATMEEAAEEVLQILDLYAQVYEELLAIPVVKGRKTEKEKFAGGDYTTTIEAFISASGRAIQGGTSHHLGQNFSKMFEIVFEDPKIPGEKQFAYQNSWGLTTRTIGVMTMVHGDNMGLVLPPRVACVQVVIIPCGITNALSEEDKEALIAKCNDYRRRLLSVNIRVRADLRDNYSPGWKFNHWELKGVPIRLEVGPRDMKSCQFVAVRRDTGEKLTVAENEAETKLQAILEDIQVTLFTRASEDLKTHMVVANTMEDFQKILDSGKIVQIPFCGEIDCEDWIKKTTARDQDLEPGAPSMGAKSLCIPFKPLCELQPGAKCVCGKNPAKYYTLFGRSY
measurement_notes: Surface plasmon resonance (SPR)
Type: binding
measurement_conditions: + ATP (1 mM); read-out: KD
measured_quantity: Kd

Ask: What Kd value was documented for this compound, O=C(CC1NCCCC1O)Cn1cnc2cc(Br)c(Cl)cc2c1=O (stereo not shown) [HF, Halofuginone, reference compound] ?
Result: 0.178 µM

* * *

Each record here notes measured pIC50.
tested_on: PARS1 (Homo sapiens)
Construct: His‐PARS1 (1001–1,512 aa); His; made in house; host or cells: Escherichia coli
Sequence (P07814 1001-1512 limits assumed): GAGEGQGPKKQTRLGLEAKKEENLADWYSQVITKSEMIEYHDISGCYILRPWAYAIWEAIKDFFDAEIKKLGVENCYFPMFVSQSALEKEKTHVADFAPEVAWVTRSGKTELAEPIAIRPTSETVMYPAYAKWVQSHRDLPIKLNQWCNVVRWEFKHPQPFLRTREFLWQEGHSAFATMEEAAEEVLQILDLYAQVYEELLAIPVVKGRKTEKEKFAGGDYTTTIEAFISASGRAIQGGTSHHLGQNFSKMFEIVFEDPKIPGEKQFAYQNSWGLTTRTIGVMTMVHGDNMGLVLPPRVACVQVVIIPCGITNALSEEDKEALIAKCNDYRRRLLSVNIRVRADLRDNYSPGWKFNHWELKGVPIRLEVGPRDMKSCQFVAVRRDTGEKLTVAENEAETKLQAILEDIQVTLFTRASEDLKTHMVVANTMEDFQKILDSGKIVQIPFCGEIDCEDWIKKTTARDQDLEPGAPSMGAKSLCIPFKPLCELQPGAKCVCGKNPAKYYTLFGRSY
measurement_notes: In vitro prolylation assay
Format: biochemical
measurement_conditions: IC50, 1 μM Pro, 5 mM ATP
Quick note: pIC50 means taking -log10 of the concentration in moles per liter.

1) O[C@H]1CCCN[C@@H]1CCCn1cnc2c(Cl)c(Cl)ccc21: 7.12

# evaluate next
Ask: What pIC50 value was documented for this compound, O=C(CC1NCCCC1O)Cn1cnc2cc(Br)c(Cl)cc2c1=O (centres unmarked) [HF, Halofuginone, reference compound] ?
Result: 7.61

* * *

measurement_notes: in vitro
measurement_conditions: human, Cytotoxicity, % of control, average
measured_quantity: activity at 72 h, 0.03 µM (%)
Your answer should be a plain number; it is taken to be in %.

Ask: What activity at 72 h, 0.03 µM value was documented for this molecule, O=C(CC1NCCCC1O)Cn1cnc2cc(Br)c(Cl)cc2c1=O (stereo not shown) [HF, Halofuginone, reference compound] ?
Result: 73.6

* * *

measurement_notes: CellTiter‐Glo assay (cytotoxicity)
measurement_conditions: human, WI-26 VA4 cells, CC50, 72 h (Fig 1B)
measured_quantity: CC50 at 72 h (µM)
Your answer should be a plain number; it is taken to be in µM.

Ask: What CC50 at 72 h value was documented for this compound, "O[C@H]1CCCN[C@@H]1CCCn1cnc2c(Cl)c(Cl)ccc21" ?
Result: 20.8

* * *

Each record here notes measured activity at 0.3 µM.
System: WI‐26 VA4 cells
measurement_notes: Puromycin incorporation assay
Format: cell-based, human
measurement_conditions: Homo sapiens, WI26VA4, 300 nM; read-out: Puromycin, % of control, average
Protocol: After being rinsed with cold PBS twice, the cells were collected and resuspended in 200 μl of the carbonate bicarbonate buffer (Sigma Aldrich, C3041‐50CAP) with protease inhibitor. […] After protein quantification using a Pierce™ BCA Protein Assay Kit (Thermo Fisher Scientific, 23225), 400 ng of the proteins was coated to ELISA plates for 18 h at 4°C. […] The amount of puromycin incorporated in proteins was determined by measuring the absorbance at 450 nm (reference wavelength at 620 nm). […]
Your answer should be a plain number; it is taken to be in %.

The cases that follow already have their activity at 0.3 µM on record.
1. O=C(CC1NCCCC1O)Cn1cnc2cc(Br)c(Cl)cc2c1=O (stereo not shown) [HF, Halofuginone, reference compound]: 26.8
2. Cc1c(Br)cnc2c1ncn2CC(=O)C[C@H]1NCCC[C@@H]1O [DWN11761]: 117
3. O=C(C[C@H]1NCCC[C@@H]1O)Cn1cnc2ccc(-c3cccc(F)c3)cc21 [DWN11251]: 92.9

Ask: What activity at 0.3 µM value was documented for this compound, Cc1c(Cl)ccc2c1ncn2CC(=O)C[C@H]1NCCC[C@@H]1O [DWN11748] ?
Result: 102

* * *

System: TNT Quick Coupled Transcription/Translation System (luciferase synthesis)
Type: biochemical
measurement_conditions: 2000 nM; average
measured_quantity: TNT-luciferase % of control, average

The cases that follow already have their TNT-luciferase % of control, average on record.
1) O=C(C[C@H]1NCCC[C@@H]1O)Cn1cnc2ccc(-c3cccc(F)c3)cc21 [DWN11251]: 92.29 % of control
2) O[C@H]1CCCN[C@@H]1CCCn1cnc2c(Cl)c(Cl)ccc21 [DWN12088]: 99.15 % of control
3) Cc1c(Cl)ccc2c1ncn2CC(=O)C[C@H]1NCCC[C@@H]1O [DWN11748]: 73.72 % of control

# evaluate next
Ask: What TNT-luciferase % of control, average value was documented for this compound, Cc1c(Br)cnc2c1ncn2CC(=O)C[C@H]1NCCC[C@@H]1O [DWN11761] ?
Result: 3.00 % of control

* * *

Each record here notes measured pIC50.
tested_on: PARS1 (Homo sapiens)
Construct: His‐PARS1 (1001–1,512 aa); His; made in house; host or cells: Escherichia coli
measurement_notes: In vitro prolylation assay
Type: biochemical
measurement_conditions: IC50, 100 μM Pro, 10 mM ATP
Quick note: pIC50 means taking -log10 of the concentration in moles per liter.

1. O=C(CC1NCCCC1O)Cn1cnc2cc(Br)c(Cl)cc2c1=O (centres unmarked) [HF, Halofuginone, reference compound]: 7.00

Ask: Recorded pIC50 for O[C@H]1CCCN[C@@H]1CCCn1cnc2c(Cl)c(Cl)ccc21 [DWN12088] with PARS1 (Homo sapiens), please?
Result: 5.52

* * *

Test system: WI‐26 VA4 cells
measurement_notes: Collagen ELISA (secreted pro‐collagen I)
measurement_conditions: Homo sapiens, WI26VA4, read-out: Collagen, % of control, average, 300 nM; average
Each record here notes measured activity at 0.3 µM.
Your answer should be a plain number; it is taken to be in %.

The cases that follow already have their activity at 0.3 µM on record.
1) Cc1c(Br)cnc2c1ncn2CC(=O)C[C@H]1NCCC[C@@H]1O [DWN11761]: 3.18
2) O[C@H]1CCCN[C@@H]1CCCn1cnc2c(Cl)c(Cl)ccc21 [DWN12088]: 96.4
3) O=C(CC1NCCCC1O)Cn1cnc2cc(Br)c(Cl)cc2c1=O (centres unmarked) [HF, Halofuginone, reference compound]: 2.57
4) O=C(C[C@H]1NCCC[C@@H]1O)Cn1cnc2ccc(-c3cccc(F)c3)cc21 [DWN11251]: 50.1

Ask: What activity at 0.3 µM value was documented for this compound, Cc1c(Cl)ccc2c1ncn2CC(=O)C[C@H]1NCCC[C@@H]1O [DWN11748] ?
Result: 45.3

* * *

tested_on: PARS1 (Homo sapiens, UniProt P07814)
Construct: His‐PARS1 (1001–1,512 aa); His; made in house; host or cells: Escherichia coli
measurement_notes: In vitro prolylation assay
Assay type: biochemical
measurement_conditions: IC50, 100 μM Pro, 2.5 mM ATP
Each record here notes measured pIC50.
Quick note: pIC50 means taking -log10 of the concentration in moles per liter.

1) O[C@H]1CCCN[C@@H]1CCCn1cnc2c(Cl)c(Cl)ccc21: 5.23

Ask: What pIC50 value was documented for this compound, O=C(CC1NCCCC1O)Cn1cnc2cc(Br)c(Cl)cc2c1=O (centres unmarked) [HF, Halofuginone, reference compound] ?
Result: 6.86
